# System Name: HDAC (HeLa nuclear extracts)
# Test Details: In vitro assay for inhibition of histone deacetylase
# Format: biochemical
# Assay Conditions: [3H]acetylated histone H4 peptide substrate
# maps each entry to its Enzyme activity pIC50
Measure Name: Enzyme activity pIC50

- Molecule: "O=C(NO)c1cnc(N2CCN(C(=O)Nc3ccc(-c4ccccc4)cc3)CC2)nc1 [Co. No. 6]"
  System Name: "HDAC (HeLa nuclear extracts)"
  Reported Relation: "="
  Measured Result: 7.728
- Molecule: "Cc1ccc(NC(=O)N2CCN(c3ccc(C(=O)NCCO)cc3)CC2)cc1 [Co. No. 2]"
  System Name: "HDAC (HeLa nuclear extracts)"
  Reported Relation: "<"
  Measured Result: 5
- Molecule: "O=C(NCC1CCN(c2ncc(C(=O)NO)cn2)CC1)Nc1ccc(-c2ccccc2)cc1 [Co. No. 5]"
  System Name: "HDAC (HeLa nuclear extracts)"
  Reported Relation: "="
  Measured Result: 7.65
- Molecule: "Cc1cccc(C)c1NC(=O)N1CCN(c2ccc([N+](=O)[O-])cc2C(=O)NO)CC1 [compound 30]"
  System Name: "HDAC (HeLa nuclear extracts)"
  Reported Relation: ">"
  Measured Result: 5
- Molecule: "O=C(NO)c1cnc(N2CCN(C(=O)N(c3ccccc3)c3ccccc3)CC2)nc1 [Co. No. 4]"
  System Name: "HDAC (HeLa nuclear extracts)"
  Reported Relation: "="
  Measured Result: 7.127
- Molecule: "Cc1ccc(NC(=O)N2CCN(c3ccc(NC(=O)CS)cc3)CC2)cc1 [Co. No. 3]"
  System Name: "HDAC (HeLa nuclear extracts)"
  Reported Relation: "="
  Measured Result: 5.332
- Molecule: "Cc1ccc(NC(=O)N2CCN(c3ccc(C(=O)NO)cc3)CC2)cc1 [Co. No. 1]"
  System Name: "HDAC (HeLa nuclear extracts)"
  Reported Relation: "="
  Measured Result: 6.754
- Molecule: "CN(C(=O)N1CCN(c2ncc(C(=O)NO)cn2)CC1)c1ccccc1 [compound 48]"
  System Name: "HDAC (HeLa nuclear extracts)"
  Reported Relation: "="
  Measured Result: 7.163
